src = PubChem BioAssay (EPA / NIEHS)

experiment: ATG_ISRE_CIS: Attagene CIS-FACTORIAL HepG2 Assay for human Interferon Regulatory Factor 1 (IRF1) binding to an Interferon-Stimulated Response Element (ISRE) (AID 2282948); details: HepG2 ISRE cis-reporter (Attagene), mRNA transcription readout; actives raise or lower the signal
Active and inactive are the calls of the source. Rule for the calls: active = hit-call score of the fitted dose curve at least 0.9, where 1 is the maximum; inactive = score below 0.9.
Possible outcomes: active, inactive

| compound | class |
| --- | --- |
| CCc1cccc(C)c1N | inactive |
| CCC(C)N (configuration not stated) | inactive |
| O=C(Oc1ccccc1)c1ccccc1O | inactive |
| CCCCCCCCCC[N+](C)(CCCCCCCCCC)CCC[Si](OC)(OC)OC | active |
| C=C(C)C(=O)OCC(O)COc1ccc(C(C)(C)c2ccc(OCC(O)COC(=O)C(=C)C)cc2)cc1 (configuration not stated) | active |
| CCCC/C=C/C=C\C=O | active |
| N#CC1(N)CCCCC1 | inactive |

###

assay: ATG_GATA_CIS: Attagene CIS-FACTORIAL HepG2 Assay for human GATA Binding Protein (AID 2282944); details: HepG2 GATA cis-element reporter, Attagene multiplex mRNA; actives raise or lower the signal
The source made the active and inactive calls. How the source made its calls: active means hit-call score of the fitted dose curve at least 0.9, where 1 is the maximum; inactive means score below 0.9.
Possible outcomes: t = active, f = inactive

| compound | class |
| --- | --- |
| C[N+](C)(C)CCCNS(=O)(=O)C(F)(F)C(F)(F)C(F)(F)C(F)(F)C(F)(F)C(F)(F)C(F)(F)C(F)(F)F | f |
| O=C(O)CC(C(=O)O)S(=O)(=O)O (stereo not drawn) | f |
| CCCSSCCC | f |
| O=C(O)/C=C/c1ccccc1 | f |
| O=C(O)CCC(=O)O | f |
| O=C(C=Cc1ccccc1)OCCc1ccccc1 | f |
| N#CC1(N)CCCCC1 | f |
| Cc1cc(=O)[nH]c(=O)[nH]1 | f |
| CCCCOC(=O)C(C)CC (stereo not drawn) | f |
| CC(=O)OC/C=C(/C)CCC=C(C)C | f |
| CCCCCCCCCCCC(=O)N(C)CC(=O)O | f |
| C=C1C[C@H]2[C@@H]3C=C(C)C4=CC(=O)CC[C@]4(C)[C@H]3CC[C@]2(C)[C@@]1(OC(C)=O)C(C)=O | t |
| CC(=O)OCc1ccccc1 | f |

###

read-out: Monocyte Chemoattractant Protein-1 (MCP1), CCL2 (gene 6347); assay: BSK_SAg_MCP1: BioMAP Diversity Plus: SAg Assay for Monocyte Chemoattractant Protein-1 (MCP1) Biomarker Activity (AID 2283090); conditions: primary human HUVEC with PBMC; actives raise or lower the signal
The source made the active and inactive calls. The calls were made as follows: active = hit-call score of the fitted dose curve at least 0.9, where 1 is the maximum; inactive = score below 0.9.
Possible outcomes: active, inactive

| compound | class |
| --- | --- |
| CC(C)[N+](C)(CCOC(=O)C1c2ccccc2Oc2ccccc21)C(C)C | inactive |
| O=C(O)C(F)(F)C(F)(F)C(F)(F)C(F)(F)C(=O)O | inactive |
| CCCCCCCCC(CO)CCCCCC (stereo not given) | inactive |
| Clc1cc(Cl)c(Cl)c(Cl)c1Cl | inactive |
| CC/C=C\CCOC(=O)c1ccccc1O | active |
| C=CCCCCCCCCC=O | inactive |
| CCN1CN(CC)CN(CC)C1 | inactive |
| COc1ccc(C(=O)c2ccccc2)c(O)c1 | inactive |
| CCNc1nc(NC(C)(C)C)nc(OC)n1 | inactive |
| CC=C(C)C(C)=O | inactive |
| CCOC(=O)C1=NOC(c2ccccc2)(c2ccccc2)C1 | inactive |
| Oc1c(Cl)cc(Cl)c(Cl)c1Cl | active |
| CCOC(=O)C1=NN(c2ccc(Cl)cc2Cl)C(C)(C(=O)OCC)C1 (stereo not given) | inactive |
| CCCCCCCCCCCC(C)=O | active |
| Oc1ccccc1Cc1ccccc1O | inactive |
| C[N+](C)(C)CCCNS(=O)(=O)C(F)(F)C(F)(F)C(F)(F)C(F)(F)C(F)(F)C(F)(F)C(F)(F)C(F)(F)F | inactive |
| Fc1ccc(Br)cc1 | inactive |
| c1ccc2c(c1)[nH]c1ccccc12 | inactive |
| CCCC(C)C(=O)OCC (stereo not given) | inactive |
| Nc1ccc(C(=O)O)cc1 | inactive |
| Nc1cccc(N)n1 | inactive |
| CC(CCC(=O)O)(c1ccc(O)cc1)c1ccc(O)cc1 | inactive |
| CCCCCCC=O | inactive |
| C=CC(=O)NC(C)(C)C | inactive |
| O=C1CCCCCCCCCCCN1 | inactive |
| C=CC(=O)OCC(C)OCC(C)OCC(C)OC(=O)C=C (stereo not given) | active |
| C=C(C)C(=O)OCCCCCCCCCCCC | inactive |
| Cc1c(O)cccc1O | inactive |
| CCOC(=O)/C=C\C(=O)OCC | inactive |
| CC/C=C\C/C=C\C/C=C\CCCCCCCC(=O)OC | active |
